assay_target: Sialic acid-binding Ig-like lectin 9 (Homo sapiens)
run_description: Hs-Siglec9 ALPHAscreen SOP 20170721
Parameters: scale not given: direction of the effect not stated beside the values
conditions_used: 10 µM
measurement_label: Percent Effect (%)
Value expressed in %; do not type the unit.

// worked examples, Percent Effect included
The molecule identified as Cc1nn(C)c(N(C)C)c1CNCc1cccnc1 registered its Percent Effect at -9.25

Record COc1ccccc1OCc1cc(C(=O)N2CCN[C@H](C)C2)n[nH]1 . Reported Percent Effect: 25.9

Field: next molecule
# Percent Effect (molecule: Cc1cc(CN(C)C2CCCN(Cc3noc(C4CC4)n3)C2)no1 (stereo unspecified) ) is -8.06

These data points were gathered from ChEMBL document CHEMBL3988442.
